system: PC-3; assay: Cytotoxicity against human PC3 cells; format: functional, cell-based
recorded.metric: IC50 (µM)
Answer with a number only, understood to be in µM.

>  <cpd.smiles>
O=[N+]([O-])c1ccc2[nH]cc(-c3nsc(-c4c[nH]c5ccc([N+](=O)[O-])cc45)n3)c2c1

>  <IC50, µM>
680

$$$$
>  <cpd.smiles>
Cn1c(-c2nsc(-c3cc4ccccc4n3C)n2)cc2ccccc21

>  <IC50, µM>
432

$$$$
>  <cpd.smiles>
COc1ccc2c(-c3nsc(-c4c[nH]c5cc(OC)ccc45)n3)c[nH]c2c1

>  <IC50, µM>
76.1

$$$$

Here is another molecule to look at.
// query Give me measured IC50, please, for this molecule: `COc1ccc2[nH]cc(-c3nsc(-c4c[nH]c5ccc(OC)cc45)n3)c2c1`
// result 224
